Each entry below carries its measured pIC50, system: Prothrombin (Homo sapiens, UniProt P00734).
Quick note: pIC50 values are minus log10 of concentrations in mol/L.

Consider the reported pIC50 for these molecules:
[
  {
    "molecule": "CC(C)(C(=O)N1CCCCC1)c1ccc2c(c1)nc1n2CCNC1Cc1ccc(C(=N)N)cc1 (stereo unspecified)",
    "numeric.value": 6.00
  },
  {
    "molecule": "N=C(N)c1ccc(CC2NCCn3c2nc2cc(C4(C(=O)N5CCCCC5)CCCC4)ccc23)cc1 (stereo unspecified)",
    "numeric.value": 5.99
  },
  {
    "molecule": "N=C(N)c1ccc(CC2NCCn3c2nc2cc(C4(C(=O)N5CCCC5)CCCC4)ccc23)cc1 (stereo unspecified)",
    "numeric.value": 7.08
  },
  {
    "molecule": "CCOC(=O)C(C)(C)c1ccc2c(c1)nc1n2CCNC1Cc1ccc(C(=N)N)cc1 (stereo unspecified)",
    "numeric.value": 5.84
  }
]

So what does the record say about pIC50 for CCOC(=O)C1(c2ccc3c(c2)nc2n3CCNC2Cc2ccc(C(=N)N)cc2)CCCC1 (stereo unspecified) ?
5.72

So what does the record say about pIC50 for N=C(N)c1ccc(CC2NCCn3c2nc2cc(C4(C(=O)N5CCCC5)CCC4)ccc23)cc1 (stereo unspecified) ?
6.35
